Experimental target: T1, human PrRP receptor GPR10 (human, UniProt P49683 1-370)
T1 construct: whole, on cells; also called GPR10 human receptor transfected in CHO cells; human GPR10 receptor
T1 sequence (looked up): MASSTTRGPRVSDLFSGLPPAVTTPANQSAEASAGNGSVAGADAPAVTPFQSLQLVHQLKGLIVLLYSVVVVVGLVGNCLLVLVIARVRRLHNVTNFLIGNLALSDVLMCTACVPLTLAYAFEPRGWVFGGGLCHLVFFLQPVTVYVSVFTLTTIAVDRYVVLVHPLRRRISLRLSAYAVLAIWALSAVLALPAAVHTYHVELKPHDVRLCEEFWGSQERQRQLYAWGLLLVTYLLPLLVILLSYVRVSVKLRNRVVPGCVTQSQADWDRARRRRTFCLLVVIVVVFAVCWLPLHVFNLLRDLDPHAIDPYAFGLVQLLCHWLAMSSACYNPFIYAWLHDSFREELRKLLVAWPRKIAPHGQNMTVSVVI
Assay info: competition with 125I-human PrRP31, CHO cells with human GPR10
Square brackets hold non-standard residues; d marks the D form. Ends that are not written are not given here. * marks the point of attachment. Stearoyl = CCCCCCCCCCCCCCCCCC(=O)*; Palmitoyl = CCCCCCCCCCCCCCCC(=O)*; Myristoyl = CCCCCCCCCCCCCC(=O)*; PheNO2 = nitrophenylalanine; Nle = CCCC[C@H](N)C(=O)O
Measured endpoint: % of PrRP31 (%)

binder="Myristoyl-SRAHQHS[Nle]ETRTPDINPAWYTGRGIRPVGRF-NH2 [analog no. 7]" measured_endpoint="% of PrRP31" number=548

[I] Stearoyl-SRAHQHS[Nle]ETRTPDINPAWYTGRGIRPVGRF-NH2 [analog no. 9]
[II] Palmitoyl-SRAHQHS[Nle]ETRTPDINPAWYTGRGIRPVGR[PheNO2]-NH2 [analog no. 18]
For the pair I and II , which member has the lower % of PrRP31 number? Write down the label of the entry you select.
I

[A] SRTHRHSMEIRTPDINPAWYASRGIRPVGRF-NH2 (synthetic peptide) [Human PrRP31]
[B] Myristoyl-SRAHQHS[Nle]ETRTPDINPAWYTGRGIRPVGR[PheNO2]-NH2 [analog no. 17]
For the pair A and B , which member has the lower % of PrRP31 number? Write down the label of the entry you select.
A
(A: 86%, B: 245%)

Source listed as patent US20150196651A1.
